System: ovarian cancer cells A2780
Procedure Text: Cell anti-proliferation experiment, MTT (Table 2)
Format: cell-based, human
Test Conditions: Homo sapiens, A2780, 72 h, incubate 3 days
Kindly state IC50 for each of the entries shown.
Give bare numbers, in nM.

Take a look at these entries with their results.
COC(=O)Nc1ccc2c(-c3nc(N[C@H]4CCC5(CC5)NC4)ncc3C(F)(F)F)c[nH]c2c1Br [Example T-142]
5.05
COCCOC(=O)Nc1ccc2c(-c3nc(N[C@H]4CCCNC4)ncc3C(F)(F)F)c[nH]c2c1Br [Example T-62]
12.5
COC(=O)Nc1ccc2c(-c3nc(N[C@H]4CCCNC4)ncc3C(F)(F)F)c[nH]c2c1C(C)=O [Example T-98]
5.55

From here, focus on the item given below.
Prompt: # get_value(readout='IC50', item= COC(=O)Nc1ccc2c(-c3nc(N[C@H]4CCC5(CC5)NC4)ncc3C(F)(F)F)c[nH]c2c1C(C)=O [Example T-135] )
Response: 4.61

====

Test system: breast cancer cells MDA-MB453
Procedure Text: Cell anti-proliferation experiment, MTT (Table 2)
Assay type: cell-based
Test Conditions: Homo sapiens, MDA-MB-453, 72 h, incubate 3 days
Value Type: IC50 (nM)
One number for each entry, in nM.

// solved cases for IC50 follow
CCOC(=O)Nc1ccc2c(-c3nc(N[C@H]4CCCNC4)ncc3C(F)(F)F)c[nH]c2c1Br
77.9
COC(=O)Nc1ccc2c(-c3nc(N[C@H]4CCC(C)(C)NC4)ncc3C(F)(F)F)c[nH]c2c1Br
116
COC(=O)Nc1ccc2c(-c3nc(N[C@H]4CCCNC4)ncc3C(F)(F)F)c[nH]c2c1Br
51.9
COC(=O)Nc1ccc2c(-c3nc(N[C@H]4CCCNC4)ncc3C(F)(F)F)c[nH]c2c1Cl
53.1
COCCOC(=O)Nc1ccc2c(-c3nc(N[C@H]4CCCNC4)ncc3C(F)(F)F)c[nH]c2c1Br
23.8

Below are some compounds; for each one, tell me its IC50.
1. COC(=O)Nc1ccc2c(-c3nc(N[C@H]4CCCNC4)ncc3C(F)(F)F)c[nH]c2c1OC
2. COC(=O)Nc1ccc2c(-c3nc(N[C@H]4CCCNC4)ncc3C(F)(F)F)c[nH]c2c1C(F)(F)F
3. COC(=O)Nc1ccc2c(-c3nc(N[C@H]4CCCNC4)ncc3C(F)(F)F)c[nH]c2c1C
4. CC1(C)CC[C@H](Nc2ncc(C(F)(F)F)c(-c3c[nH]c4c(P(C)(C)=O)c(C#N)ccc34)n2)CN1 [Compound 101, reference compound]

Response:
10.8
120
17.7
112

====

Measured Target: CDK2/Cyclin El (Homo sapiens (Human))
Procedure Text: Enzyme activity test, mobility shift assay (Table 1)
Test Conditions: 2 mM ATP; read-out: CDK2 kinase IC50
Value Type: IC50

Example results:
COC(=O)Nc1ccc2c(-c3nc(N[C@H]4CCC[C@@H](N)C4)ncc3C(F)(F)F)c[nH]c2c1Br
> 500 nM
COC(=O)Nc1ccc2c(-c3nc(N[C@H]4CCC(C)(C)NC4)ncc3C(F)(F)F)c[nH]c2c1Cl
> 500 nM
COC(=O)Nc1ccc2c(-c3nc(N[C@H]4CCCNC4)ncc3C(F)(F)F)c[nH]c2c1SC(C)C
> 500 nM

I'm hoping you can list IC50 for every compound here, please.
1. COC(=O)Nc1ccc2c(-c3nc(N[C@H]4CCC5(CC5)NC4)ncc3C(F)(F)F)c[nH]c2c1C(F)(F)F
2. CN1CCC[C@H](Nc2ncc(C(F)(F)F)c(-c3c[nH]c4cc(N5CCCC5=O)ccc34)n2)C1
3. COC(=O)Nc1ccc2c(-c3nc(N[C@H]4CCCNC4)ncc3C(F)(F)F)c[nH]c2c1-c1ccccc1

Response:
["> 500 nM", "> 500 nM", "> 500 nM"]

Prompt: Quick one: IC50 for COC(=O)Nc1ccc2c(-c3nc(N[C@H]4CCCNC4)ncc3C(F)(F)F)c[nH]c2c1Cl ?
Response: > 500 nM
